- Tested on: SMMC-7721 (human liver carcinoma) cells
- Experiment Notes: MTT in vitro cytotoxicity assay, SMMC-7721
- Format: cell-based
- Settings: Homo sapiens, SMMC-7721, 48 h, read-out: IC50 (μM) SMMC-7721
Endpoint: IC50 (µM)

{"columns": ["Compound", "Quantity Unit", "Reading"],
 "data": [
  ["COc1ccc2cc3[n+](cc2c1OC)CCc1cc2c(cc1-3)OCO2 [BBR, berberine, reference compound]", "µM", 68.1]
]}
